Recorded values, source patent US20190300590A1.

system: T1, IL23R_huFC (human, UniProt Q5VWK5 24-353)
T1 sequence (looked up): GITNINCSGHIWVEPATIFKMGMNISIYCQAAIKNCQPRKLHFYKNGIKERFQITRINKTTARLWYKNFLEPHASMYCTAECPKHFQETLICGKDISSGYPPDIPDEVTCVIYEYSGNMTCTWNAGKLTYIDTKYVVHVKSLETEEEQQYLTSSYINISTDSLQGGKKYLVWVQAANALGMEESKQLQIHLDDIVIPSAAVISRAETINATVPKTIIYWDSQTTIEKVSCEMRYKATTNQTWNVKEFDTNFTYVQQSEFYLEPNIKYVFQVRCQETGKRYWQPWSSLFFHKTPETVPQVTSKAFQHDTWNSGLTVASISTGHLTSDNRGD
experiment-summary: IL23-IL23R competitive binding ELISA
Bridges are numbered along the chain shown (N, C = ends). [ ]: non-standard residue; d: D form. 2Nal = N[C@@H](Cc1ccc2ccccc2c1)C(=O)O; AEF = NCCOc1ccc(C[C@H](N)C(=O)O)cc1; Pen = CC(C)(S)[C@H](N)C(=O)O; αMeK = C[C@](N)(CCCCN)C(=O)O
For each entry below, report its IC50 value.

Which value of IC50 has been reported for XQTWQXFXLKNN (Ac; Pen-Pen disulfide; Phe[4-(2-acetylaminoethoxy)]; 2-Nal; α-MeLeu; Lys(Ac); NH2) [Ac-[Pen]-QTWQ-[Pen]-[Phe[4-(2-acetylaminoethoxy)]-[2-Nal]-[α-MeLeu]-[Lys(Ac)]-NN-NH2] in the records?
< 10 nM

Which value of IC50 has been reported for XQTWQXYXKENG (Ac; Pen-Pen disulfide; 2-Nal; α-MeLys; NH2) [Ac-[Pen]-QTWQ-[Pen]-Y-[2-Nal]-[α-MeLys]-ENG-NH2] in the records?
25 to 100 nM

Which value of IC50 has been reported for XQTWQXFXLKNN (Ac; Pen-Pen disulfide; Phe[4-(2-aminoethoxy)]; 2-Nal; α-MeLeu; Lys(Ac); NH2) [Ac-[Pen]-QTWQ-[Pen]-[Phe[4-(2-aminoethoxy)]-[2-Nal]-[α-MeLeu]-[Lys(Ac)]-NN-NH2] in the records?
< 10 nM

Which value of IC50 has been reported for XQTWQXFXLQNN (Ac; Pen-Pen disulfide; Phe[4-(2-aminoethoxy)]; 2-Nal; α-MeLeu; NH2) [Ac-[Pen]-QTWQ-[Pen]-[Phe[4-(2-aminoethoxy)]-[2-Nal]-[α-MeLeu]-QNN-NH2] in the records?
< 10 nM

Which value of IC50 has been reported for Ac-[Pen]TTWQ[Pen][AEF][2Nal][αMeK]ENG-NH2 (disulfide 1-6 (inferred)) [Ac-[Pen]-TTWQ-[Pen]-[Phe[4-(2-aminoethoxy)]-[2-Nal]-[α-MeLys]-ENG-NH2] in the records?
10 to 25 nM

Which value of IC50 has been reported for XQTWQXFXKKNG (N-terminal gallic acid; Pen-Pen disulfide; Phe(4-OMe); 2-Nal; α-MeLys; Lys(Ac); NH2) [gallic acid-[Pen]-QTWQ[Pen]-[Phe(4-OMe)]-[2-Nal]-[α-MeLys]-[Lys(Ac)]-NG-NH2] in the records?
1000 to 10000 nM

Which value of IC50 has been reported for XQTWQXYWLENG (Ac; Pen-Pen disulfide; hLeu; NH2) [Ac-[Pen]-QTWQ-[Pen]-YW-[hLeu]-ENG-NH2] in the records?
100 to 1000 nM
